assay: Pharmacokinetics after intravenous administration of CK in rats (10 mg/kg); format: in vivo, Sprague-Dawley rats; conditions: female, Sprague-Dawley, rat, plasma, iv, 10 mg/kg, female rats, i.v. 10 mg/kg, 0.5 h, Mean±SD; read-out: Plasma concentrations of CK
MEASUREMENT KIND: concentration at 0.5 h
Remember to put the unit after the number in your answer.

Input: So what's the measured concentration at 0.5 h for this one? CC(C)=CCCC(C)(OC1OC(CO)C(O)C(O)C1O)C1CCC2(C)C1C(O)CC1C3(C)CCC(O)C(C)(C)C3CCC12C (stereo not shown) [CK]
Output: 354 ng/mL

* * *

assay: Pharmacokinetics after intravenous administration of CK in rats (10 mg/kg); type: in vivo, Sprague-Dawley rats; conditions: male, Sprague-Dawley, rat, plasma, iv, 10 mg/kg, male rats, i.v. 10 mg/kg, 0.5 h, individual rats 1-3; read-out: Plasma concentrations of CK
MEASUREMENT KIND: concentration at 0.5 h (ng/mL)
Number only, in ng/mL; omit the unit.

Input: So what's the measured concentration at 0.5 h for this one? CC(C)=CCCC(C)(OC1OC(CO)C(O)C(O)C1O)C1CCC2(C)C1C(O)CC1C3(C)CCC(O)C(C)(C)C3CCC12C (stereo not shown)
Output: 393

* * *

assay: Pharmacokinetics after intravenous administration of CK in rats (10 mg/kg); format: in vivo, Sprague-Dawley rats; conditions: female, Sprague-Dawley, rat, plasma, iv, 10 mg/kg, female rats, i.v. 10 mg/kg, 6 h, Mean±SD; read-out: Plasma concentrations of CK
MEASUREMENT KIND: concentration at 6 h

Input: So what's the measured concentration at 6 h for this one? CC(C)=CCCC(C)(OC1OC(CO)C(O)C(O)C1O)C1CCC2(C)C1C(O)CC1C3(C)CCC(O)C(C)(C)C3CCC12C (stereo not shown)
Output: 32.8 ng/mL

* * *

assay: Pharmacokinetics after intravenous administration of CK in rats (10 mg/kg); format: in vivo, Sprague-Dawley rats; settings: female, Sprague-Dawley, rat, plasma, iv, 10 mg/kg, female rats, i.v. 10 mg/kg, 0.5 h, individual rats 1-3; read-out: Plasma concentrations of CK
MEASUREMENT KIND: concentration at 0.5 h (ng/mL)
Number only, in ng/mL; omit the unit.

Input: So what's the measured concentration at 0.5 h for this one? CC(C)=CCCC(C)(OC1OC(CO)C(O)C(O)C1O)C1CCC2(C)C1C(O)CC1C3(C)CCC(O)C(C)(C)C3CCC12C (stereo not shown)
Output: 291

* * *

assay: Pharmacokinetics after intravenous administration of CK in rats (10 mg/kg); assay type: in vivo, Sprague-Dawley rats; settings: female, Sprague-Dawley, rat, plasma, iv, 10 mg/kg, female rats, i.v. 10 mg/kg, 0.05 h, Mean±SD; read-out: Plasma concentrations of CK
MEASUREMENT KIND: concentration at 0.05 h (ng/mL)
Number only, in ng/mL; omit the unit.

Input: So what's the measured concentration at 0.05 h for this one? CC(C)=CCCC(C)(OC1OC(CO)C(O)C(O)C1O)C1CCC2(C)C1C(O)CC1C3(C)CCC(O)C(C)(C)C3CCC12C (stereo not shown)
Output: 15900

* * *

assay: DSC thermal analysis of CK polymorphs; format: physicochemical; settings: 20 K/min from 20 to 400 °C, dry nitrogen flow
MEASUREMENT KIND: DSC onset of the decomposition endotherm (thermodynamical stability) (°C)
Number only, in °C; omit the unit.

Example entries and their recorded answers appear below.
[[record]]
molecule = "CC(C)=CCCC(C)(OC1OC(CO)C(O)C(O)C1O)C1CCC2(C)C1C(O)CC1C3(C)CCC(O)C(C)(C)C3CCC12C (stereo not shown) [Form III]"
recorded_number = 255.9

[[record]]
molecule = "CC(C)=CCCC(C)(OC1OC(CO)C(O)C(O)C1O)C1CCC2(C)C1C(O)CC1C3(C)CCC(O)C(C)(C)C3CCC12C (stereo not shown) [Form IV]"
recorded_number = 250.2

[[record]]
molecule = "CC(C)=CCCC(C)(OC1OC(CO)C(O)C(O)C1O)C1CCC2(C)C1C(O)CC1C3(C)CCC(O)C(C)(C)C3CCC12C (stereo not shown) [Form I]"
recorded_number = 267.5


We now examine a further molecule.
Input: So what's the measured DSC onset of the decomposition endotherm (thermodynamical stability) for this one? CC(C)=CCCC(C)(OC1OC(CO)C(O)C(O)C1O)C1CCC2(C)C1C(O)CC1C3(C)CCC(O)C(C)(C)C3CCC12C (stereo not shown) [Form II]
Output: 263.1

* * *

assay: Pharmacokinetics after intravenous administration of CK in rats (10 mg/kg); format: in vivo, Sprague-Dawley rats; settings: male, Sprague-Dawley, rat, plasma, iv, 10 mg/kg, male rats, i.v. 10 mg/kg, 9 h, Mean±SD; read-out: Plasma concentrations of CK
MEASUREMENT KIND: concentration at 9 h (ng/mL)
Number only, in ng/mL; omit the unit.

Input: So what's the measured concentration at 9 h for this one? CC(C)=CCCC(C)(OC1OC(CO)C(O)C(O)C1O)C1CCC2(C)C1C(O)CC1C3(C)CCC(O)C(C)(C)C3CCC12C (stereo not shown)
Output: 12.4

* * *

Assay: Pharmacokinetics after intravenous administration of CK in rats (10 mg/kg)
Type: in vivo, Sprague-Dawley rats
Settings: male, Sprague-Dawley, rat, plasma, iv, 10 mg/kg, male rats, i.v. 10 mg/kg, Mean±SD; read-out: MRT(0-∞)
Description: All samples were analyzed with a triple quadrupole LC-MS/MS (API 4000 LC-MS/MS, AB Sciex, Framingham, MA, USA) coupled with an Agilent 1200 HPLC system (Agilent Technologies, Palo Alto, CA, USA). The MS was equipped with an electrospray system (ESI). The N2 gas temperature and ion-spray voltage were set to 550 °C and 4.5 kV, respectively. […]
MEASUREMENT KIND: MRT inf (min)
Number only, in min; omit the unit.

Input: So what's the measured MRT inf for this one? CC(C)=CCCC(C)(OC1OC(CO)C(O)C(O)C1O)C1CCC2(C)C1C(O)CC1C3(C)CCC(O)C(C)(C)C3CCC12C (stereo not shown)
Output: 34.2

* * *

test: Pharmacokinetics after intravenous administration of CK in rats (10 mg/kg); type: in vivo, Sprague-Dawley rats; details: male, Sprague-Dawley, rat, plasma, iv, 10 mg/kg, male rats, i.v. 10 mg/kg, Mean±SD; read-out: t1/2z (converted)
MEASUREMENT KIND: half-life (h)
Number only, in h; omit the unit.

Input: So what's the measured half-life for this one? CC(C)=CCCC(C)(OC1OC(CO)C(O)C(O)C1O)C1CCC2(C)C1C(O)CC1C3(C)CCC(O)C(C)(C)C3CCC12C (stereo not shown)
Output: 3.1

* * *

assay: Pharmacokinetics after intravenous administration of CK in rats (10 mg/kg); format: in vivo, Sprague-Dawley rats; conditions: male, Sprague-Dawley, rat, plasma, iv, 10 mg/kg, male rats, i.v. 10 mg/kg, 8 min, Mean±SD; read-out: Plasma concentrations of CK
MEASUREMENT KIND: concentration at 8 min (ng/mL)
Number only, in ng/mL; omit the unit.

Input: So what's the measured concentration at 8 min for this one? CC(C)=CCCC(C)(OC1OC(CO)C(O)C(O)C1O)C1CCC2(C)C1C(O)CC1C3(C)CCC(O)C(C)(C)C3CCC12C (stereo not shown)
Output: 2280

* * *

test: Pharmacokinetics after oral administration of CK polymorphs in rats (20 mg/kg); type: in vivo, Sprague-Dawley rats; conditions: male, Sprague-Dawley, rat, plasma, po, 20 mg/kg, male rats, p.o. 20 mg/kg, mean ± SD (n = 3); read-out: Cmax
MEASUREMENT KIND: Cmax

Input: So what's the measured Cmax for this one? CC(C)=CCCC(C)(OC1OC(CO)C(O)C(O)C1O)C1CCC2(C)C1C(O)CC1C3(C)CCC(O)C(C)(C)C3CCC12C (stereo not shown) [Form I]
Output: 259 ng/mL

* * *

experiment: Pharmacokinetics after oral administration of CK polymorphs in rats (20 mg/kg); type: in vivo, Sprague-Dawley rats; conditions: female, Sprague-Dawley, rat, plasma, po, 20 mg/kg, female rats, p.o. 20 mg/kg, mean ± SD (n = 3)
MEASUREMENT KIND: AUC(0-inf)
Remember to put the unit after the number in your answer.

Input: So what's the measured AUC(0-inf) for this one? CC(C)=CCCC(C)(OC1OC(CO)C(O)C(O)C1O)C1CCC2(C)C1C(O)CC1C3(C)CCC(O)C(C)(C)C3CCC12C (stereo not shown) [Form I]
Output: 2220 ng·h/mL

* * *

assay: Pharmacokinetics after intravenous administration of CK in rats (10 mg/kg); assay type: in vivo, Sprague-Dawley rats; conditions: male, Sprague-Dawley, rat, plasma, iv, 10 mg/kg, male rats, i.v. 10 mg/kg, 0.05 h, Mean±SD; read-out: Plasma concentrations of CK
MEASUREMENT KIND: concentration at 0.05 h (ng/mL)
Number only, in ng/mL; omit the unit.

Input: So what's the measured concentration at 0.05 h for this one? CC(C)=CCCC(C)(OC1OC(CO)C(O)C(O)C1O)C1CCC2(C)C1C(O)CC1C3(C)CCC(O)C(C)(C)C3CCC12C (stereo not shown)
Output: 17100
